What IC50 mutant/IC50 wild-type (ratio (IC50 mutant/IC50 wild-type)) was measured for each of the following?
Molecular target: FGFR2 over-expressed on CHO cells (CHO-FGFR2) and on 32D cells (32D-FGFR2) (UniProt P21803)
Assay: competition of unlabeled protein with 125I-FGF4 (Gly79-Leu206) for CHO-FGFR2 cells, +heparin

FGF4 (Gly79-Leu206) L162A (ligand) GIKRLRRLYCNVGIGFHLQALPDGRIGGAHADTRDSLLELSPVERGVVSIFGVASRFFVAMSSKGKLYGSPFFTDECTFKEILAPNNYNAYESYKYPGMFIALGKNGKTKKGNRVSPTMKVTHFLPRL; > 1000

What IC50 mutant/IC50 wild-type (ratio (IC50 mutant/IC50 wild-type)) value was documented for this binder, FGF4 (Gly79-Leu206) L203A (ligand) GIKRLRRLYCNVGIGFHLQALPDGRIGGAHADTRDSLLELSPVERGVVSIFGVASRFFVAMSSKGKLYGSPFFTDECTFKEILLPNNYNAYESYKYPGMFIALGKNGKTKKGNRVSPTMKVTHFAPRL ?
> 100
